Hello, the source for this data is ChEMBL document CHEMBL5360657, in case you need it.

assay: Clearance in mouse at 3 mg/kg, iv; format: ADME, organism-based; conditions: in vivo
outcome_measure: clearance (mL/min/kg)
Give the value in mL/min/kg but do not write mL/min/kg after it.

I am curious: what clearance value has been reported for Cc1cc(N2CCc3c(c(C)nn3CC34CCC(N)(CC3)CC4)C2)c2cnn(C)c2n1 ?
24

----------
experiment: AUC in rat at 1 mg/ml, iv; type: ADME; design: dose 1 mg/ml, route iv; details: in vivo
AUC by entry:
Respond with the bare value in µM·h.

Example entries and their recorded answers appear below.
INSERT INTO measurements (compound_structure_string, units, numeric_readout) VALUES
  ('CCNCC(=O)NC12CCC(Cn3nc(C)c4c3CCN(c3cc(C)nc5c3cnn5C)C4)(CC1)CC2', 'µM·h', 1.78),
  ('CN[C@@H](C)C(=O)NC12CCC(Cn3nc(C)c4c3CCN(c3cc(C)nc5c3cnn5C)C4)(CC1)CC2', 'µM·h', 1.78);

Now turn to the next compound.
Quick one: AUC of Cc1cc(N2CCc3c(c(C)nn3CC34CCC(NC(=O)[C@@H]5COCCN5)(CC3)CC4)C2)c2cnn(C)c2n1 ?
1.78

----------
test: Cmax in mouse at 3 mg/kg, iv; type: ADME, organism-based; parameters: dose 3 mg/kg, route iv; conditions: in vivo
outcome_measure: Cmax (µM)
Hi! Could you send only the number? It should be in µM, unit omitted.

Returns the measured Cmax for the input compound. Input: Cc1cc(N2CCc3c(c(C)nn3CC34CCC(N)(CC3)CC4)C2)c2cnn(C)c2n1
0.321

----------
assay: Clast in mouse at 20 mg/kg, po; assay type: ADME, organism-based; conditions: in vivo, read-out: Clast
outcome_measure: concentration (nM)
Just the number in nM, nothing appended.

Requested read-out: concentration. Entry: Cc1cc(N2CCc3c(c(C)nn3CC34CCC(N)(CC3)CC4)C2)c2cnn(C)c2n1
35

----------
Let's look at some compounds and their measured microsomal CLint.
test: Metabolic stability in mouse liver microsomes assessed as intrinsic clearance; assay type: ADME, Microsome; conditions: read-out: CLH
Use µL/min/mg as the unit, but write only the number.

Before answering, review these 3 worked examples.
INSERT INTO measurements (compound_structure_string, numeric_readout) VALUES
  ('Cc1cc(N2CCc3c(c(C)nn3CC34CCC(NC(=O)CN5CCCC5)(CC3)CC4)C2)c2cnn(C)c2n1', 531),
  ('Cc1cc(N2CCc3c(c(C)nn3CC34CCC(NC5CCC5)(CC3)CC4)C2)c2cnn(C)c2n1', 77),
  ('Cc1cc(N2CCc3c(c(C)nn3CC34CCC(N5CCC5)(CC3)CC4)C2)c2cnn(C)c2n1', 65);

For the next question, use this compound.
Please report the recorded microsomal CLint for Cc1cc(N2CCc3c(c(C)nn3CC34CCC(N5C[C@@H](C)O[C@@H](C)C5)(CC3)CC4)C2)c2cnn(C)c2n1 .
440

----------
biological target: Cytochrome P450 3A4 (Homo sapiens, UniProt P08684); experiment: Time dependent inhibition of CYP3A4 (unknown origin) assessed as Kobs; type: ADME
Sequence (P08684 whole entry): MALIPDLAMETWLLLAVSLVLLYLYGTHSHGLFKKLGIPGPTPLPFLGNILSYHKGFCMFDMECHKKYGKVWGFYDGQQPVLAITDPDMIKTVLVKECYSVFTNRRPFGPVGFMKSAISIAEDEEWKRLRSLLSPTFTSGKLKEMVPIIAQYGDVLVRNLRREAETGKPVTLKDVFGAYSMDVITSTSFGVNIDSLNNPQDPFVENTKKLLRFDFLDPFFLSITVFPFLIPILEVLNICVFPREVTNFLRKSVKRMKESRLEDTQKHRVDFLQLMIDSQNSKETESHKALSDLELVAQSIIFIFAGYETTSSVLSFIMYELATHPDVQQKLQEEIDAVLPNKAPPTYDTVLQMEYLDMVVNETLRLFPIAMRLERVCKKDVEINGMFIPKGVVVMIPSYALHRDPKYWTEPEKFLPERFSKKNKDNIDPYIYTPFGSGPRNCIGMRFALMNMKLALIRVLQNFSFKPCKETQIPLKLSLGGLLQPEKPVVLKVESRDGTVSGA
outcome_measure: Kobs (min⁻¹)
All answers are understood in min⁻¹, so give the number only.

INSERT INTO assay_data (molecule, outcome_measure, numeric_readout) VALUES
  ('Cc1cc(N2CCc3c(c(C)nn3CC34CCC(N5C[C@@H](C)O[C@@H](C)C5)(CC3)CC4)C2)c2cnn(C)c2n1', 'Kobs', 0.031),
  ('Cc1cc(N2CCc3c(c(C)nn3CC34CCC(NC(=O)[C@@H]5COCCN5)(CC3)CC4)C2)c2cnn(C)c2n1 [MHV-370]', 'Kobs', 0.006),
  ('Cc1cc(N2CCc3c(c(C)nn3CC34CCC(N5CCC5)(CC3)CC4)C2)c2cnn(C)c2n1', 'Kobs', 0.015),
  ('CN[C@@H](C)C(=O)NC12CCC(Cn3nc(C)c4c3CCN(c3cc(C)nc5c3cnn5C)C4)(CC1)CC2', 'Kobs', 0.022),
  ('Cc1cc(N2CCc3c(c(C)nn3CC34CCC(N5CCCC5)(CC3)CC4)C2)c2cnn(C)c2n1', 'Kobs', 0.022),
  ('CC(=O)NC12CCC(Cn3nc(C)c4c3CCN(c3cc(C)nc5c3cnn5C)C4)(CC1)CC2', 'Kobs', 0.022);

Name the recorded Kobs for Cc1cc(N2CCc3c(c(C)nn3CC34CCC(NC(=O)CN5CCC5)(CC3)CC4)C2)c2cnn(C)c2n1 .
0.044

What do we get for Cc1cc(N2CCc3c(c(C)nn3CC34CCC(NC5CCC5)(CC3)CC4)C2)c2cnn(C)c2n1 ?
0.037

Another molecule to check: Cc1cc(N2CCc3c(c(C)nn3CC34CCC(NCC(F)F)(CC3)CC4)C2)c2cnn(C)c2n1
0.011

Would you kindly repeat that for Cc1cc(N2CCc3c(c(C)nn3CC34CCC(NS(C)(=O)=O)(CC3)CC4)C2)c2cnn(C)c2n1 ?
0.021

Follow-up entry: Cc1cc(N2CCc3c(c(C)nn3CC34CCC(NC5COC5)(CC3)CC4)C2)c2cnn(C)c2n1
0.009

What do you have for Cc1cc(N2CCc3c(c(C)nn3CC34CCC(N5CCOCC5)(CC3)CC4)C2)c2cnn(C)c2n1 ?
0.038

Further, for CN[C@H](C)C(=O)NC12CCC(Cn3nc(C)c4c3CCN(c3cc(C)nc5c3cnn5C)C4)(CC1)CC2 ?
0.023

----------
test: Metabolic stability in mouse liver microsomes assessed as intrinsic clearance; assay type: ADME, Microsome; settings: read-out: CLH
outcome_measure: log10 microsomal CLint (log10 of the value in µL/min/mg)
Would you kindly interpret these values as log10 of microsomal CLint expressed in µL/min/mg?

The examples below pair each entry with its known result.
INSERT INTO results (compound_structure_string, outcome_measure, numeric_readout) VALUES
  ('CNC12CCC(Cn3nc(C)c4c3CCN(c3cc(C)nc5c3cnn5C)C4)(CC1)CC2', 'log10 microsomal CLint', 1.45),
  ('Cc1cc(N2CCc3c(c(C)nn3CC34CCC(N)(CC3)CC4)C2)c2cnn(C)c2n1', 'log10 microsomal CLint', 1.18),
  ('Cc1cc(N2CCc3c(c(C)nn3CC34CCC(N5CCN(C)C(=O)C5)(CC3)CC4)C2)c2cnn(C)c2n1', 'log10 microsomal CLint', 2.01);

For the compound Cc1cc(N2CCc3c(c(C)nn3CC34CCC(NC(=O)[C@@H]5CNCCO5)(CC3)CC4)C2)c2cnn(C)c2n1 , what log10 microsomal CLint is on record?
1.97

Another compound to look at: Cc1cc(N2CCc3c(c(C)nn3CC34CCC(N5CCCC5)(CC3)CC4)C2)c2cnn(C)c2n1
1.38

Try the compound CCNCC(=O)NC12CCC(Cn3nc(C)c4c3CCN(c3cc(C)nc5c3cnn5C)C4)(CC1)CC2
1.98

Quick one: Cc1cc(N2CCc3c(c(C)nn3CC34CCC(N5CCOCC5)(CC3)CC4)C2)c2cnn(C)c2n1
2.39

Then Cc1cc(N2CCc3c(c(C)nn3CC34CCC(NC5COC5)(CC3)CC4)C2)c2cnn(C)c2n1 ?
1.78

Another: Cc1cc(N2CCc3c(c(C)nn3CC34CCC(NC(=O)[C@@H]5COCCN5)(CC3)CC4)C2)c2cnn(C)c2n1
1.72

Now try Cc1cc(N2CCc3c(c(C)nn3CC34CCC(N(C)C)(CC3)CC4)C2)c2cnn(C)c2n1 .
1.52

Now the same for CN[C@@H](C)C(=O)NC12CCC(Cn3nc(C)c4c3CCN(c3cc(C)nc5c3cnn5C)C4)(CC1)CC2
1.62

Then this compound: Cc1cc(N2CCc3c(c(C)nn3CC34CCC(NC(=O)CN(C)C)(CC3)CC4)C2)c2cnn(C)c2n1
2.02

How about CN[C@H](C)C(=O)NC12CCC(Cn3nc(C)c4c3CCN(c3cc(C)nc5c3cnn5C)C4)(CC1)CC2 ?
2.08

Field entry: Cc1cc(N2CCc3c(c(C)nn3CC34CCC(NC(=O)[C@H]5COCCN5)(CC3)CC4)C2)c2cnn(C)c2n1
2.58

For Cc1cc(N2CCc3c(c(C)nn3CC34CCC(N5CCN(C)CC5=O)(CC3)CC4)C2)c2cnn(C)c2n1 then?
2.40

----------
assay: Cmax in mouse at 20 mg/kg, po; assay type: ADME, organism-based; design: dose 20 mg/kg, route po; settings: in vivo
outcome_measure: Cmax (nM)
The figure you give is taken to be in nM; do not add the unit.

Recorded Cmax for Cc1cc(N2CCc3c(c(C)nn3CC34CCC(N)(CC3)CC4)C2)c2cnn(C)c2n1 , please?
321

----------
molecular target: UniProt O00206; assay: Antagonist activity at TLR4 in human Whole blood cell assessed as reduction in IL-6 level measured after 30 mins; assay type: tissue-based
Sequence (O00206 whole entry): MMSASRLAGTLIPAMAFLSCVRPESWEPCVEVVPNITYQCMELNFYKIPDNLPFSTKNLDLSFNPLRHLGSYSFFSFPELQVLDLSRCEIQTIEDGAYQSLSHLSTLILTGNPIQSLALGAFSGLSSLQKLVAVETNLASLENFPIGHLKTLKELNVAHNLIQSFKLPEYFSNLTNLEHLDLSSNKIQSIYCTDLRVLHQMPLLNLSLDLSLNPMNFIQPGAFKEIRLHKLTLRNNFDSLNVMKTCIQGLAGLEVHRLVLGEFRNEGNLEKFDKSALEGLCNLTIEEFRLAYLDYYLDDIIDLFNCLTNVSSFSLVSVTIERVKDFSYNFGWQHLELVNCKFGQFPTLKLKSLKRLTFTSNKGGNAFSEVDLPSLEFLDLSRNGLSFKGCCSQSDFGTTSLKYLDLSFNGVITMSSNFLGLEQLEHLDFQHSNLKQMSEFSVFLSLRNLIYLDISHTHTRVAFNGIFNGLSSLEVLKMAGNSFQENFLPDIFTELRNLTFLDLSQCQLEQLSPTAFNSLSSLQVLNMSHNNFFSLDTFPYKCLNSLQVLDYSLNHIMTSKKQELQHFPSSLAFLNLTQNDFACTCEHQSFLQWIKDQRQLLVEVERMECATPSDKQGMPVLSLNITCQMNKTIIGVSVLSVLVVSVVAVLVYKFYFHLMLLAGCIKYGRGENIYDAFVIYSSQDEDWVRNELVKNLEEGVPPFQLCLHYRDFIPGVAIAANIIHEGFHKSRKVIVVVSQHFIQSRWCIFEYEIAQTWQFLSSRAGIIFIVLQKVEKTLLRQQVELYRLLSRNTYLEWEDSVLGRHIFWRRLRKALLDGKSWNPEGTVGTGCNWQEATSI
outcome_measure: IC50

Looking for the measured IC50 of Cc1cc(N2CCc3c(c(C)nn3CC34CCC(NC(=O)[C@@H]5COCCN5)(CC3)CC4)C2)c2cnn(C)c2n1 [MHV-370] , can you help?
> 10 µM
